The entries below are paired with their reported zone of inhibition at 12 µg/disc.
test system: Salmonella enterica; experiment: Antibacterial activity against Salmonella enterica at 12 ug/well after 24 hrs by agar well diffusion method; type: functional; conditions: read-out: DIZ
Express the result in mm but write the number alone.

Reference set, count: 5
COMPOUND | ENDPOINT LABEL | REPORTED MEASUREMENT
CN(C)[C@@H]1C(O)=C(C(N)=O)C(=O)[C@@]2(O)C(O)=C3C(=O)c4c(O)cccc4[C@@](C)(O)[C@H]3C[C@@H]12 [TETRACYCLINE] | zone of inhibition at 12 µg/disc | 7
CC[C@H]1OC(=O)[C@H](C)[C@@H](O[C@H]2C[C@@](C)(OC)[C@@H](O)[C@H](C)O2)[C@H](C)[C@@H](O[C@@H]2O[C@H](C)C[C@H](N(C)C)[C@H]2O)[C@](C)(O)C[C@@H](C)C(=O)[C@H](C)[C@@H](O)[C@]1(C)O [ERYTHROMYCIN] | zone of inhibition at 12 µg/disc | 8
Cc1[nH]c2ccccc2c1C(=O)C1=C(N)Oc2ccc3ccccc3c2C1c1ccc(Cl)cc1Cl (stereo unspecified) | zone of inhibition at 12 µg/disc | 15
NC1=C(C(=O)c2c[nH]c3ccc(Br)cc23)C(c2cccnc2)c2c(ccc3ccccc23)O1 (stereo unspecified) | zone of inhibition at 12 µg/disc | 6
NC1=C(C(=O)c2c[nH]c3ccccc23)C(c2ccc(Cl)cc2)c2c(ccc3ccccc23)O1 (stereo unspecified) | zone of inhibition at 12 µg/disc | 17

# input compound: NC1=C(C(=O)c2c[nH]c3ccccc23)C(c2ccc(F)cc2)c2c(ccc3ccccc23)O1 (stereo unspecified) ; wanted: its zone of inhibition at 12 µg/disc 6
